Origin of values: patent US8232274B2

# TARGET: glucan synthase (Candida albicans, UniProt O13428)
# Construct: glucan synthase sources (2 μL permeabilized PM503 cells, or 3 μL membrane preparations from either PM503, BWP17, or ND158); endogenous in cells; host or cells: C. albicans strain BWP17, 100,000 g membrane fraction
# Sequence (O13428 1-1897): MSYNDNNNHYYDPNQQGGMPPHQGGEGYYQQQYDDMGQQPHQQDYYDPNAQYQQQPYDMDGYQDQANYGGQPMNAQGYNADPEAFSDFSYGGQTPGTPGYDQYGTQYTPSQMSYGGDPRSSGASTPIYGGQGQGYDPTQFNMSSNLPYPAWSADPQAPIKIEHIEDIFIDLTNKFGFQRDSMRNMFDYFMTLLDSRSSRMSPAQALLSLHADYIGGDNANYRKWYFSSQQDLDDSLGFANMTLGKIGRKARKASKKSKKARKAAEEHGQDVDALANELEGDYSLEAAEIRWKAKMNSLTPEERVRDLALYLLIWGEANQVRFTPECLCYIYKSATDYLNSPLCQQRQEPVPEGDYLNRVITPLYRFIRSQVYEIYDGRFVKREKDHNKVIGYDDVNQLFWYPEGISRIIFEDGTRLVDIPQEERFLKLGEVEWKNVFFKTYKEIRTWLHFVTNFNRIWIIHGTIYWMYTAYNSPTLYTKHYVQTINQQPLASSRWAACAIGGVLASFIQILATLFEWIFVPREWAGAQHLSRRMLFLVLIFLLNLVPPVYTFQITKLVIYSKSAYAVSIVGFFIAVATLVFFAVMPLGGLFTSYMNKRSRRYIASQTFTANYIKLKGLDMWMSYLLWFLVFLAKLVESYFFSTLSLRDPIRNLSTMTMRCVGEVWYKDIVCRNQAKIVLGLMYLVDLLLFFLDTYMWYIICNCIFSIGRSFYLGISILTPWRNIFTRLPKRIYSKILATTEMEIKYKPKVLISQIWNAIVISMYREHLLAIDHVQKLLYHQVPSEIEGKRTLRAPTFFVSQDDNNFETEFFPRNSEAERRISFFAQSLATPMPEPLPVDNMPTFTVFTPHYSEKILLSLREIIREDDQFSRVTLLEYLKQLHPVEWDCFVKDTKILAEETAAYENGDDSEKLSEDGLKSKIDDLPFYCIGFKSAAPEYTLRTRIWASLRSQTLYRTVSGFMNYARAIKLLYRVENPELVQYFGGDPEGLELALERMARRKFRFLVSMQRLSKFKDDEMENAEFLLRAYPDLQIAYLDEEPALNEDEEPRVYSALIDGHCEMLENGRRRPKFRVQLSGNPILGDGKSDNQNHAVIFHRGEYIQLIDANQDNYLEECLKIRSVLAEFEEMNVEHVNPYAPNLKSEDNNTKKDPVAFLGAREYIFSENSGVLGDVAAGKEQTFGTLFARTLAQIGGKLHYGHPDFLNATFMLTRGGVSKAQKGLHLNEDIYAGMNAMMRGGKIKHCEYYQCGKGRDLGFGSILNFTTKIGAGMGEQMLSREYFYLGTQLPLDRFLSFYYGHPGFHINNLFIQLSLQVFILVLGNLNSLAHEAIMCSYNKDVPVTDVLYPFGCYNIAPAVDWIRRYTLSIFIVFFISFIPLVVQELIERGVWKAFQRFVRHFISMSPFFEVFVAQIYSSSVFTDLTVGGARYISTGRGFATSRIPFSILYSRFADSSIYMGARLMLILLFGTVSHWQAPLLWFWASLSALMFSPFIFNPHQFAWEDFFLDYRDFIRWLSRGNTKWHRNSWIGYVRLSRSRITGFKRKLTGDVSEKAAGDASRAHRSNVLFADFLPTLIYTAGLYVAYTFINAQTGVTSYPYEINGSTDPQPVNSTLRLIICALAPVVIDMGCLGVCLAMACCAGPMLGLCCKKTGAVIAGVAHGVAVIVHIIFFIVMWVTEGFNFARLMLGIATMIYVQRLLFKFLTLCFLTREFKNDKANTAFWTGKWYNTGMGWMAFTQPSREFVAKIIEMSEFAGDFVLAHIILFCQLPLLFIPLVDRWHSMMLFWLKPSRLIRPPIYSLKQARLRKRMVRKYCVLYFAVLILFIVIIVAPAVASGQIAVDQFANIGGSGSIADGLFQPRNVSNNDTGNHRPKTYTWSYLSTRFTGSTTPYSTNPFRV
# Sequence (O42825 1-195 partner limits assumed): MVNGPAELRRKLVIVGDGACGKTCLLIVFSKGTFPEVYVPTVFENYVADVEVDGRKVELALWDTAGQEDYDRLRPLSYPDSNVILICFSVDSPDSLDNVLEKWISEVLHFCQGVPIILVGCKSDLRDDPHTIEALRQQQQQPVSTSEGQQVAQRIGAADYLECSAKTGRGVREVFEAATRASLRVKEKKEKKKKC
# PROTOCOL: β(1,3) glucan synthase assay, C. albicans BWP17 membrane preparation (IC50)
# Type: biochemical
# CONDITIONS: in vitro fungal enzyme activity assay, read-out: IC50 (μg/mL) Candida albicans (converted)
Listed compounds paired with reported log10(IC50)
Hello, just confirming the data are log10 of IC50 with units of nM.

The cases that follow already have their log10(IC50) on record.
COMPOUND: CCCCCCSc1c(N2CCN(S(C)(=O)=O)CC2)cnn(-c2cc(F)cc(F)c2)c1=O [11Z]
log10(IC50): 4.10
--
COMPOUND: CCCCCCCSc1c(N2CCN(S(=O)(=O)Cc3ccccc3)CC2)cnn(-c2ccccc2)c1=O [7Z]
log10(IC50): 3.31
--
COMPOUND: CC1(COc2c(N3CCN(S(=O)(=O)NCc4ccc(Cl)nc4)CC3)cnn(-c3cccc(Cl)c3)c2=O)CC1 [1675Z]
log10(IC50): 2.54
--
COMPOUND: CC1(COc2c(N3CCN(S(=O)(=O)Cc4ccc5ocnc5c4)CC3)cnn(-c3cc(F)cc(F)c3)c2=O)CC1 [270*]
log10(IC50): 1.54
--
COMPOUND: CC1(COc2c(N3CCN(S(=O)(=O)Cc4ccc5ncoc5c4)CC3)cnn(-c3cc(F)cc(F)c3)c2=O)CC1 [1891Z]
log10(IC50): 2.09
--
COMPOUND: COc1cccc(CS(=O)(=O)N2CCN(c3cnn(-c4cccc(Cl)c4)c(=O)c3OCC3(C)CC3)CC2)c1N [Compound 1574ZI]
log10(IC50): 1.94
--
COMPOUND: O=c1c(OCC2CC2(F)F)c(N2CCN(S(=O)(=O)Cc3ccccc3)CC2)cnn1-c1cc(F)cc(F)c1 (stereo not shown) [1529Z-180]
log10(IC50): 0.73
--
COMPOUND: COc1ccc(CS(=O)(=O)N2CCN(c3cnn(-c4cc(F)cc(F)c4)c(=O)c3OCC3(C)CC3)CC2)cc1N [1864Z]
log10(IC50): 1.94
--
COMPOUND: Nc1ccccc1CS(=O)(=O)N1CCN(c2cnn(-c3cc(F)cc(F)c3)c(=O)c2OC2CCCC2)CC1 [738Z]
log10(IC50): 2.11
--
COMPOUND: CC1(COc2c(N3CCN(S(=O)(=O)Cc4ccc(C#N)cc4)CC3)cnn(-c3cccc(Cl)c3)c2=O)CC1 [1529Z-56]
log10(IC50): 2.03

Report log10(IC50) for COc1ccc(CNS(=O)(=O)N2CCN(c3cnn(-c4cc(F)cc(F)c4)c(=O)c3OCC3(C)CC3)CC2)cc1 [1633Z] tested on glucan synthase (Candida albicans, UniProt O13428).
1.94

Same question for Nc1ccc(CS(=O)(=O)N2CCN(c3cnn(-c4cc(F)cc(F)c4)c(=O)c3OC3CCC(F)C3)CC2)cc1 (stereo not shown) [1529Z-6] please.
2.03

Same question for CC1(COc2c(N3CCN(S(=O)(=O)NCc4ccc(F)cc4)CC3)cnn(-c3cc(F)cc(F)c3)c2=O)CC1 [1734Z] please.
2.36
